The reported numbers originate from the supplement of paper PMC9262897.

- System: E. coli TESEC Mtb Asd
- experiment-summary: growth (OD600 after 10 h); higher = more growth (less inhibition)
- measurement-conditions: arabinose induction (level): Low; compound 0.1 mM; raw OD600 reference: median of DMSO wells 0.417, cell-free background 0.041
Structures can show the parent of a compound that is named as a salt.
Label NO if growth falls below 0.4; label YES in every other case.

| compound | study-system | answer-label |
| --- | --- | --- |
| C[C@]12CCC(=O)C=C1C=C[C@@H]1[C@@H]2CC[C@@]2(C)[C@H]1CC[C@@]2(O)CCC(=O)O [Canrenoic acid potassium salt] | E. coli TESEC Mtb Asd | NO |
| CN1[C@@H]2CC[C@H]1C[C@@H](OC(=O)C(CO)c1ccccc1)C2 (stereo partly drawn) [Atropine sulfate monohydrate] | E. coli TESEC Mtb Asd | YES |
| C=C1CC[C@@]2(O)[C@H]3Cc4ccc(O)c5c4[C@@]2(CCN3CC2CC2)[C@H]1O5 [Nalmefene hydrochloride] | E. coli TESEC Mtb Asd | NO |
| COc1ccc(CCN)cc1OC | E. coli TESEC Mtb Asd | NO |
| C[N+]1(C)CCOC(O)(c2ccc(-c3ccc(C4(O)C[N+](C)(C)CCO4)cc3)cc2)C1 (stereo not drawn) [Hemicholinium bromide] | E. coli TESEC Mtb Asd | NO |
| C[C@]12CCC(=O)C=C1CC[C@@H]1[C@@H]2C(=O)C[C@]2(C)C(=O)CC[C@@H]12 | E. coli TESEC Mtb Asd | YES |

----------
- Test system: E. coli TESEC Alr+ wild-type control
- experiment-summary: growth (OD600 after 10 h); higher = more growth (less inhibition)
- measurement-conditions: compound 0.1 mM; raw OD600 reference: median of DMSO wells 0.241, cell-free background 0.041
Structures can show the parent of a compound that is named as a salt.
quantity: growth

| compound | readout-value |
| --- | --- |
| C[C@]12CC[C@@H](O)C[C@H]1CC[C@@H]1[C@@H]2CC[C@]2(C)C(=O)CC[C@@H]12 [3-alpha-Hydroxy-5-beta-androstan-17-one] | 0.129 |
| C[C@]12Cc3c[nH]nc3C[C@@H]1CC[C@@H]1[C@@H]2CC[C@@]2(C)[C@H]1CC[C@]2(C)O | 0.184 |
| NCC(CC(=O)O)c1ccc(Cl)cc1 (racemic) [Baclofen (R,S)] | 0.248 |
| COc1ccc(OC)c(C(O)C(C)N)c1 (stereo not drawn) [Methoxamine hydrochloride] | 0.241 |
| COc1ccc(CCN)cc1OC | 0.213 |
| CC[N+]1(C)CCCC(OC(=O)C(O)(c2ccccc2)c2ccccc2)C1 (stereo not drawn) [Pipenzolate bromide] | 0.217 |
| C[N+]1(C)CCOC(O)(c2ccc(-c3ccc(C4(O)C[N+](C)(C)CCO4)cc3)cc2)C1 (stereo not drawn) [Hemicholinium bromide] | 0.227 |
| CCCC(C)C1(CC)C(=O)NC(=O)NC1=O (stereo not drawn) | 0.233 |

----------
- Tested on: E. coli TESEC Mtb Alr
- experiment-summary: growth (OD600 after 10 h); higher = more growth (less inhibition)
- measurement-conditions: arabinose 10000 nM; compound 0.1 mM; raw OD600 reference: median of DMSO wells 0.264, cell-free background 0.041
Where a name gives a salt, the structure may show the parent alone.

| molecule | growth |
| --- | --- |
| COc1ccc(CCN2CCC(Nc3nc4ccccc4n3Cc3ccc(F)cc3)CC2)cc1 | 0.0401 |
| Oc1cc(Cl)ccc1Oc1ccc(Cl)cc1Cl | 0.0414 |
| CC(=O)OCC1=C(C(=O)O)N2C(=O)[C@@H](N)[C@H]2SC1 | 0.269 |
| COc1cccc(C2(O)CCCCC2CN(C)C)c1 (stereo not drawn) [Tramadol hydrochloride] | 0.271 |
| CN[C@@H]1C[C@@H](c2ccc(Cl)c(Cl)c2)c2ccccc21 [Indatraline hydrochloride] | 0.0413 |
| CC[C@@H](C(N)=O)N1CCCC1=O | 0.264 |
| C=C1CC[C@@]2(O)[C@H]3Cc4ccc(O)c5c4[C@@]2(CCN3CC2CC2)[C@H]1O5 [Nalmefene hydrochloride] | 0.274 |
| CC(O)(CS(=O)(=O)c1ccc(F)cc1)C(=O)Nc1ccc(C#N)c(C(F)(F)F)c1 (stereo not drawn) [Bicalutamide] | 0.306 |

----------
- Tested on: E. coli TESEC Mtb Alr
- experiment-summary: growth (OD600 after 10 h); higher = more growth (less inhibition)
- measurement-conditions: arabinose 10000000 nM; compound 0.1 mM; raw OD600 reference: median of DMSO wells 0.146, cell-free background 0.041
Where a name gives a salt, the structure may show the parent alone.
Parameter: growth. Scope: all listed entries.

| compound | growth |
| --- | --- |
| CN(C)[C@@H]1C(=O)C(C(N)=O)=C(O)[C@@]2(O)C(=O)C3=C(O)c4c(O)cccc4[C@@](C)(O)[C@H]3[C@H](O)[C@@H]12 [Oxytetracycline dihydrate] | 0.043 |
| COc1ccc2c(c1)[C@]13CCCC[C@@H]1[C@H](C2)N(C)CC3 [Dextromethorphan hydrobromide monohydrate] | 0.142 |
| C=C(C)[C@@H]1[C@H]2OC(=O)[C@@H]1[C@]1(O)C[C@H]3O[C@]34C(=O)O[C@H]2[C@]14C | 0.138 |
| CCN(C(C)=O)c1cccc(-c2ccnc3c(C#N)cnn23)c1 | 0.132 |
| COc1ccc(C(CN(C)C)C2(O)CCCCC2)cc1 (stereo not drawn) | 0.137 |
| C#CCN(C)[C@H](C)Cc1ccccc1 [Selegiline hydrochloride] | 0.17 |
| CCC1(C)CC(=O)NC(=O)C1 [Bemegride] | 0.135 |
| c1ccc2c(c1)Nc1ccccc1S2 | 0.201 |

----------
- Tested on: E. coli TESEC Mtb DapB
- experiment-summary: growth (OD600 after 10 h); higher = more growth (less inhibition)
- measurement-conditions: arabinose induction (level): High; compound 0.1 mM; raw OD600 reference: median of DMSO wells […], cell-free background 0.041
Where a name gives a salt, the structure may show the parent alone.
quantity: growth

| compound | quantity | readout-value |
| --- | --- | --- |
| c1ccc2c(c1)Nc1ccccc1S2 [Phenothiazine] | growth | 0.209 |
| CCCC(C)C1(CC)C(=O)NC(=O)NC1=O (stereo not drawn) [Pentobarbital] | growth | 0.2 |
| C[N+](C)(C)CCCCCCCCCC[N+](C)(C)C [Decamethonium bromide] | growth | 0.234 |
| CO[C@]12C[C@@H](COC(=O)c3cncc(Br)c3)CN(C)[C@@H]1Cc1cn(C)c3cccc2c13 [Nicergoline] | growth | 0.227 |
| CCN(CC)C(C)C(=O)c1ccccc1 (stereo not drawn) [Amfepramone hydrochloride] | growth | 0.202 |
| COc1cccc(C2(O)CCCCC2CN(C)C)c1 (stereo not drawn) [Tramadol hydrochloride] | growth | 0.188 |
| CCC1(CC)C(=O)C=CNC1=O [Pyrithyldione] | growth | 0.205 |
| CC(=O)OCC1=C(C(=O)O)N2C(=O)[C@@H](N)[C@H]2SC1 [Cephalosporanic acid, 7-amino] | growth | 0.187 |
| NC(=O)CN1CCCC1=O [Piracetam] | growth | 0.202 |
| CCN(C)C(=O)Oc1cccc([C@H](C)N(C)C)c1 [Rivastigmine] | growth | 0.188 |
| CC(C)c1c(CN(C)C(C)Cc2ccccc2)n(C)n(-c2ccccc2)c1=O (stereo not drawn) [Famprofazone] | growth | 0.202 |
| CCC1(c2cccc(O)c2)CCCCN(C)C1 (stereo not drawn) [Meptazinol hydrochloride] | growth | 0.215 |
| O=C(O)CCCc1ccc(N(CCCl)CCCl)cc1 [Chlorambucil] | growth | 0.209 |
| O=c1[nH]c2ccccc2n1CCCN1CCC(n2c(=O)[nH]c3cc(Cl)ccc32)CC1 [Domperidone] | growth | 0.137 |
| O=c1[nH]c2ccccc2n1C1CCN(CCCC(c2ccc(F)cc2)c2ccc(F)cc2)CC1 [Pimozide] | growth | 0.186 |
| CC[C@@H](CO)NC(=O)[C@@H]1C=C2c3cccc4[nH]cc(c34)C[C@H]2N(C)C1 [Methylergometrine maleate] | growth | 0.129 |
| COc1ccc(C(CN(C)C)C2(O)CCCCC2)cc1 (stereo not drawn) [Venlafaxine] | growth | 0.207 |
| CCCCCC[C@H]1C(=O)O[C@H](C)[C@H](NC(=O)c2cccc(NC=O)c2O)C(=O)O[C@@H](C)[C@@H]1OC(=O)CC(C)C [Antimycin A] | growth | 0.15 |

----------
Parameter: growth. Scope: all listed entries.
- Tested on: E. coli TESEC Mtb Alr
- experiment-summary: growth (OD600 after 10 h); higher = more growth (less inhibition)
- measurement-conditions: arabinose 100 nM; compound 0.1 mM; raw OD600 reference: median of DMSO wells 0.413, cell-free background 0.052
Where a name gives a salt, the structure may show the parent alone.

| compound | study-system | growth |
| --- | --- | --- |
| NC(=O)OCCCc1ccccc1 [Phenprobamate] | E. coli TESEC Mtb Alr | 0.421 |
| COc1ccc(OC)c(C(O)C(C)N)c1 (stereo not drawn) [Methoxamine hydrochloride] | E. coli TESEC Mtb Alr | 0.413 |
| C[C@@H]1CC[C@H]2[C@@H](C)C(=O)O[C@@H]3O[C@@]4(C)CC[C@@H]1[C@]32OO4 | E. coli TESEC Mtb Alr | 0.348 |
| C[C@]12CCC(=O)C=C1C=C[C@@H]1[C@@H]2CC[C@@]2(C)[C@H]1CC[C@@]2(O)CCC(=O)O [Canrenoic acid potassium salt] | E. coli TESEC Mtb Alr | 0.407 |
| O=C(NCNC(=O)NC1C(=O)NC(=O)N1CO)NC1C(=O)NC(=O)N1CO (stereo not drawn) | E. coli TESEC Mtb Alr | 0.44 |
| CCNCC(O)c1cccc(O)c1 (stereo not drawn) [Etilefrine hydrochloride] | E. coli TESEC Mtb Alr | 0.409 |
| COc1cccc(C2(O)CCCCC2CN(C)C)c1 (stereo not drawn) [Tramadol hydrochloride] | E. coli TESEC Mtb Alr | 0.406 |
| CCCC[N+]1(C)[C@@H]2CC(OC(=O)[C@H](CO)c3ccccc3)C[C@H]1[C@@H]1O[C@@H]12 (stereo partly drawn) [Butylscopolammonium (n-) bromide] | E. coli TESEC Mtb Alr | 0.405 |
